Documented inhibition across a set of compounds
molecular target: Focal adhesion kinase 1 (Homo sapiens) (UniProt Q05397); test: FAK kinase inhibitors, primary screen, biochemical (AID 727); settings: biochemical FAK kinase activity assay; stronger effect = higher value;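 tested at 7 µM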;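 note: 0% = DMSO and 100% = reference compound high control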
Sequence (Q05397 whole entry, looked up): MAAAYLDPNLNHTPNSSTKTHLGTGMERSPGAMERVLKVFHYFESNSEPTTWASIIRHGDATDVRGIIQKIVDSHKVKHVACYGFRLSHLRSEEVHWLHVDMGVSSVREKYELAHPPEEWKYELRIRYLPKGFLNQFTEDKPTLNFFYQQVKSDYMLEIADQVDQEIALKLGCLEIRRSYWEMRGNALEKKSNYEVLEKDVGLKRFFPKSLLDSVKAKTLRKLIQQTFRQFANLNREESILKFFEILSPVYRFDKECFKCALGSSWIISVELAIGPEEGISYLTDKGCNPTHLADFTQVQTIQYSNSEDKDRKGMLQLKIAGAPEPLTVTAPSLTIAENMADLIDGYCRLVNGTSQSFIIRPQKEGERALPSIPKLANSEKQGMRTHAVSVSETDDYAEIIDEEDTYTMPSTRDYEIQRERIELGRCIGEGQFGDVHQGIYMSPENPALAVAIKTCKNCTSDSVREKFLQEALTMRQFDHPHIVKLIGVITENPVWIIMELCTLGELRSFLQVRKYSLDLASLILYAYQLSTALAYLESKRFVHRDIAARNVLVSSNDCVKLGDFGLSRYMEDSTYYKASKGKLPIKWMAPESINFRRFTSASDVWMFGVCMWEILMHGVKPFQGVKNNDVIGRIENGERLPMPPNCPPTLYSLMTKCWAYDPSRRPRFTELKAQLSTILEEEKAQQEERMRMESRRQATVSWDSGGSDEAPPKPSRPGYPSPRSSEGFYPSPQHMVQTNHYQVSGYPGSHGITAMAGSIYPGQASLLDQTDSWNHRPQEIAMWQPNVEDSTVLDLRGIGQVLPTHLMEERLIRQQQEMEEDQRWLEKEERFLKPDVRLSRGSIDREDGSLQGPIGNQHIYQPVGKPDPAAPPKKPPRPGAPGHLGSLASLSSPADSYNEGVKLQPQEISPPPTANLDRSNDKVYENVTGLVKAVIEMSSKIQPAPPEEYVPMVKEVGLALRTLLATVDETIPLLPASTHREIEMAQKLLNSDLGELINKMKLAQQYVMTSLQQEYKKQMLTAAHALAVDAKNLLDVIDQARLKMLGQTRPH
The campaign covered roughly 97,000 compounds. About 810 (0.84%) were called active. This is one part of a sample in which actives are shown more often than they occur.
measurement_label: inhibition (%)

1) CCCc1ccc(OCc2ccc(C(=O)N/N=C/c3cccc([N+](=O)[O-])c3)o2)c(OC)c1 :: 1.02
2) COc1ccc(CN(Cc2ccco2)S(=O)(=O)c2ccc(S(=O)(=O)N3CCCC3)cc2)cc1 :: -0.01
3) CCN1CCN(c2ccc([N+](=O)[O-])cc2C(=O)c2ccc(Cl)cc2)CC1 :: -2.69
4) Cc1ccc(S(=O)(=O)N(CC(=O)N/N=C/c2ccc(F)cc2)c2cccc3cccnc23)cc1 :: 3.64
5) CCn1c(CNC(=O)c2ccccc2)nnc1SCC(=O)N1CCN(c2ccccc2)CC1 :: 1.01
6) O=C(O)CCC(=O)NCc1ccc(C(=O)O)cc1 :: -0.4
7) Cc1cccc(NC(=O)c2cc(N3C(=O)CCC3=O)ccc2Cl)n1 :: -0.12
8) CC(C)CC(N=C1NC(C)(C)Cc2ccccc21)C(=O)O (centres undefined) :: -1
9) COc1ccc(-c2[nH]nc(-c3ccccc3)c2-c2nc3ccccc3[nH]2)cc1 :: -5.4
10) CCOC(=O)c1c(NC(=O)CSc2nnc(CNc3ccc(C)cc3C)o2)sc(C)c1C :: 0.35
11) CC(=O)c1cccc(NC(=O)N2CCCC2C(=O)NCCc2ccccc2)c1 (centres undefined) :: -0.1
12) Nc1c(-c2ccc(F)cc2)cnc2ncnn12 :: 19.1
13) CCc1nnc(NC(=O)c2cccs2)s1 :: -4.62
14) Cc1cccc(NC(=O)C(C)N2C(=O)C3C4CC(C(Br)C4Br)C3C2=O)c1 (centres undefined) :: 3.39

###

Documented inhibition across a set of compounds
biological target: Focal adhesion kinase 1 (Homo sapiens) (UniProt Q05397); test: FAK kinase inhibitors, primary screen, biochemical (AID 727); settings: biochemical FAK kinase activity assay; stronger effect = higher value;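 tested at 7 µM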;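 note: 0% = DMSO and 100% = reference compound high control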
Out of some 97,000 compounds screened, about 810 (0.84%) were called active. This excerpt belongs to a sample that is enriched for actives.
measurement_label: inhibition

1) COc1ccccc1OCCNc1cc(N2CCOCC2)ccc1[N+](=O)[O-] :: 0.07% (inactive)
2) C=CCNc1nc(N)c(C(=C(C#N)C#N)c2ccccc2)s1 :: 9.82% (inactive)
3) Cc1cccc(Nc2ccccc2C(=O)NCc2ccco2)c1C :: -0.25% (inactive)
4) Cc1ccc(C(=O)N/C(=C/c2ccco2)C(=O)NCCc2c[nH]c3ccccc23)cc1C :: 4.25% (inactive)
5) Cc1c(NC(=O)c2cc(-c3ccc(Cl)s3)nc3ccccc23)c(=O)n(-c2ccccc2)n1C :: 2.95% (inactive)
6) CC(C)N1C(=S)SC(C)(C)C1n1oc(=O)n(-c2ccc(Cl)c(Cl)c2)c1=O (stereo unspecified) :: 1% (inactive)
7) CCN(CC)c1nc(-c2ccccc2)cc(C(F)(F)F)c1C#N :: 4.59% (inactive)
8) CN(Cc1ccccc1)C(=O)COc1ccccc1 :: -1.65% (inactive)
9) CN(C)CCNC(=O)Nc1cccc(Cl)c1Cl :: -0.62% (inactive)
10) COc1cc(C2CC(=O)c3cnc(NC(C)=O)nc3C2)cc(OC)c1OC (stereo unspecified) :: 0.08% (inactive)
11) Cn1cccc1C(=O)Nc1nccs1 :: 25.5% (active)
12) COc1nc(-c2ccc(Cl)cc2)ccc1-c1noc(-c2cccs2)n1 :: -0.49% (inactive)
13) CN(C)/C(CN1CCCCC1)=C1\N=C(c2ccccc2)OC1=O :: -3.3% (inactive)
14) O=C(c1ccc(Cl)c(Cl)c1)N1CCCC1 :: -2.15% (inactive)
15) COc1ccccc1N(C)S(=O)(=O)c1ccc(C(=O)N2CCC(C(N)=O)CC2)cc1 :: -1.2% (inactive)
16) COCCn1c(C)cc(C(=O)CSc2ncnc3sc4c(c23)CCC4)c1C :: 83.3% (active)
